Biological target: T1, RAPGEF6, Q8TEU7
T1 sequence (Q8TEU7 525-625, limits assumed, looked up): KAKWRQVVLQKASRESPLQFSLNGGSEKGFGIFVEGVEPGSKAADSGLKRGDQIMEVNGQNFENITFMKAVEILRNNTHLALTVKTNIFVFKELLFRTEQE
Test: holdup assay
Design: key: below the threshold = too weak to quantify, mostly under pKd 3.1 to 4
Conditions: plain residues with an end cap or a label only (N-terminal biotin on a linker: ado-ado)
propertyMeasured: pKd

Worked cases, pKd given:
binder="EVNETDDTKM [KCNJ1, P48048]" propertymeasured=pKd recordedvalue="below the threshold"
binder="TKGPRGPTRV [SAPCD1, Q5SSQ6]" propertymeasured=pKd recordedvalue="below the threshold"
binder="NHSSSPETTA [TRMT13, Q9NUP7]" propertymeasured=pKd recordedvalue="below the threshold"
binder="VKPQVSESKL [ACOT8, O14734]" propertymeasured=pKd recordedvalue="below the threshold"
binder="HLRARKSEWV [GJD4, Q96KN9]" propertymeasured=pKd recordedvalue=3.5

Q: Entry under review: QSPANIYYKV [EFNB1, P52799] . Reported pKd?
Ans: below the threshold

Q: Given the binder NLSIEKETKL [ASNSD1, Q9NWL6] , what is its reported pKd?
Ans: below the threshold

Q: Reported pKd, binder QPCFNKLFPL [LPXN, O60711] : ____
Ans: below the threshold

Values from paper PMC9482650
